A collection of compounds and their measured AUC of viability dose-response curve
- Tested on: SEM cells
- assay: AUC of viability dose-response curve (% viability x log10 dose units); higher = less sensitive
- test settings: RPMI 5 mM glucose + 10% dialyzed FBS; 48 h

compound	assay target	AUC of viability dose-response curve
CCC(=O)NCC[C@@H]1CCc2ccc3c(c21)CCO3	SEM cells	435
CC(C)=CC[C@@H](O)C/1=C/C(=O)C2=C(O)C=CC(=C2C1=O)O	SEM cells	431
COc1cc2ncnc(Nc3ccc(F)c(Cl)c3)c2cc1NC(=O)/C=C/CN1CCCCC1	SEM cells	416
Fc1ccc([C@@H]2CCNC[C@H]2COc2ccc3c(c2)OCO3)cc1	SEM cells	416
O=C(O[C@H]1C[C@H]2CC[C@@H](C1)[N+]21CCCC1)C(O)(c1ccccc1)c1ccccc1.[Cl-]	SEM cells	449
C\C1=C(\C=C(C#N)/C(=O)N1)C2=C[N]3C=CN=C3C=C2	SEM cells	411
Cc1cn(-c2cc(NC(=O)c3ccc(C)c(Nc4nccc(-c5cccnc5)n4)c3)cc(C(F)(F)F)c2)cn1	SEM cells	347
C/C=C1\C2C=C(C)CC1(N)c1ccc(=O)[nH]c1C2 (stereo not given)	SEM cells	463
O=C(NC[C@H](O)CO)c1ccncc1Nc1ccc(I)cc1F	SEM cells	378
COC1=C2OC(=O)\C=C/C2=CC3=C1OC=C3	SEM cells	456
CN1CCN(c2ccc(C(=O)Nc3n[nH]c4ccc(Cc5cc(F)cc(F)c5)cc34)c(NC3CCOCC3)c2)CC1	SEM cells	354
NC(=O)c1ccc2[nH]ccc2c1	SEM cells	438
COc1ccc(C(C)=O)c(O)c1	SEM cells	462
C[N]1C=C(C2=C1C=CC=C2)\C3=C(\C(=O)NC3=O)C4=C5CC(CN)CC[N]5C6=C4C=CC=C6 (stereo not given)	SEM cells	420
S=P(N1CC1)(N1CC1)N1CC1	SEM cells	441
CCC(C)(C)c1ccc(CC(C)CN2C[C@@H](C)O[C@@H](C)C2)cc1 (stereo not given in full)	SEM cells	398
CC/1=C(/N2[C@H](SC1)[C@H](NC(=O)[C@H](N)\C3=C\C\C=C/C3)C2=O)C(O)=O	SEM cells	448
CN1CCN(CC1)C2=C3OCN(C)N4\C=C(C(O)=O)/C(=O)C(=C34)C=C2F	SEM cells	434
NC/1=N/C2=C([NH]C=N2)C(=S)N1	SEM cells	345
Nc1nc(N)c2nc(CNc3ccc(C(=O)NC(CCC(=O)O)C(=O)O)cc3)cnc2n1 (stereo not given)	SEM cells	247
